Tested on: Staphylococcus aureus V41
Test: MIC, standard agar-dilution assay
Type: cell-based
Catalogue of MIC values

Please review the following examples before continuing.
CNC(CC(C)C)C(=O)NC1C(=O)NC(CC(N)=O)C(=O)NC2C(=O)NC3C(=O)NC(C(=O)NC(C(=O)O)c4cc(O)cc(O)c4-c4cc3ccc4O)C(OC3CC(C)(NCc4ccccc4)C(O)C(C)O3)c3ccc(c(Cl)c3)Oc3cc2cc(c3O)Oc2ccc(cc2Cl)C1O (stereo not drawn) [Compound 79] ... .25 µg/mL
CNC(CC(C)C)C(=O)NC1C(=O)NC(CC(N)=O)C(=O)NC2C(=O)NC3C(=O)NC(C(=O)NC(C(=O)O)c4cc(O)cc(O)c4-c4cc3ccc4O)C(OC3CC(C)(N)C(O)C(C)O3)c3ccc(c(Cl)c3)Oc3cc2cc(c3OC2OC(CO)C(O)C(O)C2OC2CC(C)(NCc3ccc(Cl)cc3)C(O)C(C)O2)Oc2ccc(cc2Cl)C1O (stereo not drawn) [Compound 60] ... .25 µg/mL

Could you now look at the following compound, please?
Staphylococcus aureus V41 / MIC / CN[C@H](CC(C)C)C(=O)N[C@H]1C(=O)N[C@@H](CC(N)=O)C(=O)N[C@H]2C(=O)N[C@H]3C(=O)N[C@H](C(=O)N[C@H](C(=O)O)c4cc(O)cc(O)c4-c4cc3ccc4O)[C@H](O[C@H]3C[C@](C)(N)[C@@H](O)[C@H](C)O3)c3ccc(cc3)Oc3cc2cc(c3O[C@@H]2O[C@H](CO)[C@@H](O)[C@H](O)[C@H]2O[C@H]2C[C@](C)(NCc3ccccc3)[C@@H](O)[C@H](C)O2)Oc2ccc(cc2Cl)[C@H]1O [Compound 10] : value?
.25 µg/mL

====

Each entry below carries its reported MIC.
Test system: Staphylococcus aureus S13E
Assay type: cell-based

CN[C@H](CC(C)C)C(=O)N[C@H]1C(=O)N[C@@H](CC(N)=O)C(=O)N[C@H]2C(=O)N[C@H]3C(=O)N[C@H](C(=O)N[C@H](C(=O)O)c4cc(O)cc(O)c4-c4cc3ccc4O)[C@H](O[C@H]3C[C@](C)(NCc4ccccc4)[C@@H](O)[C@H](C)O3)c3ccc(cc3)Oc3cc2cc(c3O[C@@H]2O[C@H](CO)[C@@H](O)[C@H](O)[C@H]2O[C@H]2C[C@](C)(NCc3ccccc3)[C@@H](O)[C@H](C)O2)Oc2ccc(cc2Cl)[C@H]1O ... .25 µg/mL
CN[C@H](CC(C)C)C(=O)N[C@H]1C(=O)N[C@@H](CC(N)=O)C(=O)N[C@H]2C(=O)N[C@H]3C(=O)N[C@H](C(=O)N[C@H](C(=O)O)c4cc(O)cc(O)c4-c4cc3ccc4O)[C@H](O[C@H]3C[C@](C)(N)[C@@H](O)[C@H](C)O3)c3ccc(cc3)Oc3cc2cc(c3O[C@@H]2O[C@H](CO)[C@@H](O)[C@H](O)[C@H]2O[C@H]2C[C@](C)(NCCc3ccccc3)[C@@H](O)[C@H](C)O2)Oc2ccc(cc2Cl)[C@H]1O ... 1 µg/mL

Then there is this molecule:
So what's the measured MIC for this one? CNC(CC(C)C)C(=O)NC1C(=O)NC(CC(N)=O)C(=O)NC2C(=O)NC3C(=O)NC(C(=O)NC(C(=O)O)c4cc(O)cc(O)c4-c4cc3ccc4O)C(OC3CC(C)(N)C(O)C(C)O3)c3ccc(c(Cl)c3)Oc3cc2cc(c3OC2OC(CO)C(O)C(O)C2OC2CC(C)(NCC(c3ccccc3)c3ccccc3)C(O)C(C)O2)Oc2ccc(cc2Cl)C1O (stereo not drawn)
.5 µg/mL

====

# reported MIC; entries follow
Tested on: Enterococcus faecium X66
Assay: MIC, standard agar-dilution assay
Assay type: cell-based
Enter your answer as a number in µg/mL; do not include the unit.

CNC(CC(C)C)C(=O)NC1C(=O)NC(CC(N)=O)C(=O)NC2C(=O)NC3C(=O)NC(C(=O)NC(C(=O)O)c4cc(O)cc(O)c4-c4cc3ccc4O)C(OC3CC(C)(NCc4ccccc4)C(O)C(C)O3)c3ccc(cc3)Oc3cc2cc(c3O)Oc2ccc(cc2Cl)C1O (centres unmarked) ... 1

# input for lookup
Which measured MIC value corresponds to CCCCCCCCOc1ccc(CNC2(C)CC(OC3C(Oc4c5cc6cc4Oc4ccc(cc4Cl)C(OC4CC(C)(N)C(O)C(C)O4)C4NC(=O)C(NC(=O)C6NC(=O)C(CC(N)=O)NC(=O)C(NC(=O)C(CC(C)C)NC)C(O)c6ccc(c(Cl)c6)O5)c5ccc(O)c(c5)-c5c(O)cc(O)cc5C(C(=O)O)NC4=O)OC(CO)C(O)C3O)OC(C)C2O)cc1 (centres unmarked) ?
8

====

As shown below, each of these compounds has a reported MIC value.
Test system: Staphylococcus epidermidis EPI270
Test: MIC, standard agar-dilution assay
Format: cell-based
Quick reminder: number only, in µg/mL, skip the unit.

Worked cases, answers included:
CCCCCCC(=O)N[C@@]1(C)C[C@H](O[C@H]2[C@H](Oc3c4cc5cc3Oc3ccc(cc3Cl)[C@@H](O)[C@@H](NC(=O)[C@@H](CC(C)C)NC)C(=O)N[C@@H](CC(N)=O)C(=O)N[C@H]5C(=O)N[C@H]3C(=O)N[C@H](C(=O)N[C@H](C(=O)O)c5cc(O)cc(O)c5-c5cc3ccc5O)[C@H](O[C@H]3C[C@](C)(N)[C@@H](O)[C@H](C)O3)c3ccc(cc3)O4)O[C@H](CO)[C@@H](O)[C@@H]2O)O[C@@H](C)[C@@H]1O [Compound 27] ... 2
CCCCCNC1(C)CC(OC2c3ccc(c(Cl)c3)Oc3cc4cc(c3OC3OC(CO)C(O)C(O)C3O)Oc3ccc(cc3Cl)C(O)C(NC(=O)C(CC(C)C)NC)C(=O)NC(CC(N)=O)C(=O)NC4C(=O)NC3C(=O)NC2C(=O)NC(C(=O)O)c2cc(O)cc(O)c2-c2cc3ccc2O)OC(C)C1O (stereo not drawn) [Compound 77] ... 8
CNC(CC(C)C)C(=O)NC1C(=O)NC(CC(N)=O)C(=O)NC2C(=O)NC3C(=O)NC(C(=O)NC(C(=O)O)c4cc(O)cc(O)c4-c4cc3ccc4O)C(OC3CC(C)(N)C(O)C(C)O3)c3ccc(c(Cl)c3)Oc3cc2cc(c3OC2OC(CO)C(O)C(O)C2OC2CC(C)(NCC(c3ccccc3)c3ccccc3)C(O)C(C)O2)Oc2ccc(cc2Cl)C1O (stereo not drawn) [Compound 45] ... 1
CCCCCCCCc1ccc(CNC2(C)CC(OC3C(Oc4c5cc6cc4Oc4ccc(cc4Cl)C(OC4CC(C)(N)C(O)C(C)O4)C4NC(=O)C(NC(=O)C6NC(=O)C(CC(N)=O)NC(=O)C(NC(=O)C(CC(C)C)NC)C(O)c6ccc(c(Cl)c6)O5)c5ccc(O)c(c5)-c5c(O)cc(O)cc5C(C(=O)O)NC4=O)OC(CO)C(O)C3O)OC(C)C2O)cc1 (stereo not drawn) [Compound 54] ... 64

Note: attention shifts to another entry.
Which MIC is reported for this compound? CCCCCNC1(C)CC(OC2c3ccc(cc3)Oc3cc4cc(c3OC3OC(CO)C(O)C(O)C3O)Oc3ccc(cc3Cl)C(O)C(NC(=O)C(CC(C)C)NC)C(=O)NC(CC(N)=O)C(=O)NC4C(=O)NC3C(=O)NC2C(=O)NC(C(=O)O)c2cc(O)cc(O)c2-c2cc3ccc2O)OC(C)C1O (stereo not drawn) [Compound 71]
1

====

System: Staphylococcus epidermidis EPI270
Assay: MIC, standard agar-dilution assay
Assay type: cell-based
outcome.measure: MIC (µg/mL)
Answer with a number only, understood to be in µg/mL.

# count of solved cases: 2
CCCCCCCCOc1ccc(CNC2(C)CC(OC3C(Oc4c5cc6cc4Oc4ccc(cc4Cl)C(OC4CC(C)(N)C(O)C(C)O4)C4NC(=O)C(NC(=O)C6NC(=O)C(CC(N)=O)NC(=O)C(NC(=O)C(CC(C)C)NC)C(O)c6ccc(c(Cl)c6)O5)c5ccc(O)c(c5)-c5c(O)cc(O)cc5C(C(=O)O)NC4=O)OC(CO)C(O)C3O)OC(C)C2O)cc1 (stereo not drawn) ... 16
CN[C@H](CC(C)C)C(=O)N[C@H]1C(=O)N[C@@H](CC(N)=O)C(=O)N[C@H]2C(=O)N[C@H]3C(=O)N[C@H](C(=O)N[C@H](C(=O)O)c4cc(O)cc(O)c4-c4cc3ccc4O)[C@H](O[C@H]3C[C@](C)(NCc4ccc(Cl)cc4)[C@@H](O)[C@H](C)O3)c3ccc(cc3)Oc3cc2cc(c3O[C@@H]2O[C@H](CO)[C@@H](O)[C@H](O)[C@H]2O[C@H]2C[C@](C)(NCc3ccc(Cl)cc3)[C@@H](O)[C@H](C)O2)Oc2ccc(cc2Cl)[C@H]1O ... 2

Value lookup for MIC; key = CCN(CC)c1ccc(CNC2(C)CC(OC3C(Oc4c5cc6cc4Oc4ccc(cc4Cl)C(OC4CC(C)(N)C(O)C(C)O4)C4NC(=O)C(NC(=O)C6NC(=O)C(CC(N)=O)NC(=O)C(NC(=O)C(CC(C)C)NC)C(O)c6ccc(c(Cl)c6)O5)c5ccc(O)c(c5)-c5c(O)cc(O)cc5C(C(=O)O)NC4=O)OC(CO)C(O)C3O)OC(C)C2O)cc1 (stereo not drawn)
2

Cool, now CCCCCNC1(C)CC(OC2c3ccc(cc3)Oc3cc4cc(c3O)Oc3ccc(cc3Cl)C(O)C(NC(=O)C(CC(C)C)NC)C(=O)NC(CC(N)=O)C(=O)NC4C(=O)NC3C(=O)NC2C(=O)NC(C(=O)O)c2cc(O)cc(O)c2-c2cc3ccc2O)OC(C)C1O (stereo not drawn)
2

Then what about the compound `CCCCCN[C@@]1(C)C[C@H](O[C@H]2[C@H](Oc3c4cc5cc3Oc3ccc(cc3Cl)[C@@H](O)[C@@H](NC(=O)[C@@H](CC(C)C)N(C)CCCCC)C(=O)N[C@@H](CC(N)=O)C(=O)N[C@H]5C(=O)N[C@H]3C(=O)N[C@H](C(=O)N[C@H](C(=O)O)c5cc(O)cc(O)c5-c5cc3ccc5O)[C@H](O[C@H]3C[C@](C)(N)[C@@H](O)[C@H](C)O3)c3ccc(cc3)O4)O[C@H](CO)[C@@H](O)[C@@H]2O)O[C@@H](C)[C@@H]1O` ?
2

Same thing, different compound: `CC(C)C[C@H](C(=O)N[C@H]1C(=O)N[C@@H](CC(N)=O)C(=O)N[C@H]2C(=O)N[C@H]3C(=O)N[C@H](C(=O)N[C@H](C(=O)O)c4cc(O)cc(O)c4-c4cc3ccc4O)[C@H](O[C@H]3C[C@](C)(NCc4ccccc4)[C@@H](O)[C@H](C)O3)c3ccc(cc3)Oc3cc2cc(c3O[C@@H]2O[C@H](CO)[C@@H](O)[C@H](O)[C@H]2O[C@H]2C[C@](C)(NCc3ccccc3)[C@@H](O)[C@H](C)O2)Oc2ccc(cc2Cl)[C@H]1O)N(C)Cc1ccccc1`
8
